- Tested on: P94_40
- procedure-text: qHTS profiling for inhibitors of Plasmodium falciparum proliferation (AID 504749); note: nearly all actives have a fitted effect of over 60% in size
- experimental-conditions: P. falciparum in erythrocytes, SYBR Green DNA, 72 h; series mostly up to 28.7 µM
- Description: NIH National Institute of Allergy and Infectious Diseases [NIAID] NIH Chemical Genomics Center [NCGC] […] Because mature erythrocytes lack DNA, only Plasmodium-derived DNA is detected. NCGC Assay Protocol Summary: The SYBR Green viability assay was adapted from a method described previously (Plouffe et al., 2008). […] The following morning, fluorescence intensity at 485(14) nm excitation and 535(25) nm emission wavelengths was measured on an EnVision (Perkin Elmer) plate reader. […]
Records with an inconclusive call do not appear. The source made the active and inactive calls. Calls come from the whole dose curve; as a rule, active = well fitted inhibition curve with a large enough effect; inconclusive = small, poorly fitted or top-dose-only effect; inactive = flat fitted curve, though single readings scatter.
Tick one outcome: t (active), f (inactive)

Please review the following examples before continuing.
CC(=O)[C@H]1CC[C@H]2C3CC=C4C[C@@H](O)CC[C@]4(C)C3CC[C@]12C (stereo not given in full) :: f
CC(C)C[C@@H](NC(=O)[C@H](Cc1ccccc1)NC(=O)c1cnccn1)B(O)O :: t
CC(C)(O)c1ccccc1CC[C@H](SCC1(CC(=O)O)CC1)c1cccc(/C=C/c2ccc3ccc(Cl)cc3n2)c1 :: f
C[C@@H](C(=O)O)c1ccc(-c2ccccc2)c(F)c1 :: f

Next up:
Task item: Which outcome did this test record for the compound C/C=C1\C2C=C(C)CC1(N)c1ccc(=O)[nH]c1C2 (stereo not given) ?
Reply: f

----------
- System: Zika virus NS2B-NS3 protease (unlinked)
- procedure-text: Optimization of GU AMC qHTS for Zika virus inhibitors: Unlinked NS2B-NS3 protease assay (AID 1347151); note: nearly all actives have a fitted effect of over 80% in size; note: potency is the fitted concentration of half-maximal effect
- experimental-conditions: recombinant ZIKV NS2B-NS3 protease, fluorogenic AMC substrate; series mostly up to 52.5 µM
Records with an inconclusive call do not appear. Active and inactive are the calls of the source. Calls follow the shape of the dose curve; as a rule, active = well fitted inhibition curve with a large enough effect; inconclusive = small, poorly fitted or top-dose-only effect; inactive = no such curve, though single readings can be large or run the other way.
test-readout: Potency

Before answering, review these 5 worked examples.
Oc1cc2ccccc2c2ccccc12 :: 44.1 µM (active)
C[S+](CC[C@H](N)C(=O)O)C[C@H]1O[C@@H](n2cnc3c(N)ncnc32)[C@H](O)[C@H]1O (some centres not stated) :: inactive
CN1CCN(C(=O)CCN2C(=O)/C(=C\c3ccccc3F)SC2=S)CC1 :: 49.4 µM (active)
Nc1c(S(=O)(=O)O)cc(Nc2ccc(Nc3nc(Cl)nc(Nc4ccc(S(=O)(=O)O)cc4)n3)c(S(=O)(=O)O)c2)c2c1C(=O)c1ccccc1C2=O :: 10.6 µM (active)
CC[N+](CC)(CC)CC :: inactive

So for "CCc1ccc(/C=C2/SC(=S)NC2=O)cc1" , the logged Potency turned out to be 23.8 µM (active)

So for CCOc1ccc(C2C(=O)N(C3CCCCCC3)CC(=O)N2CCc2ccc(Cl)cc2)cc1OC (configuration not stated) , the logged Potency turned out to be inactive

----------
- System: Zika virus NS2B-NS3 protease (linked construct)
- procedure-text: 384 well plate NINDS Rhodamine confirmatory qHTS for Zika virus inhibitors (AID 1347164);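 note: fluorescence from protease cleavage of Ac-LKRR-rhodamine 110 substrate; nearly all actives have a fitted effect of over 65% in size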
- experimental-conditions: rhodamine-110 peptide substrate fluorescence; series mostly up to 1 mM
Results filed as inconclusive are left out. Calls of active or inactive are those of the source. Calls come from the whole dose curve; as a rule, active = well fitted inhibition curve with a large enough effect; inconclusive = small, poorly fitted or top-dose-only effect; inactive = no such curve, though single readings can be large or run the other way.
Tick one outcome: Yes for active, No for inactive

Please review the following examples before continuing.
Clc1ccc(-c2nn3c(COc4cc(Cl)c(OCc5nnc6sc(-c7ccc(Cl)cc7)nn56)cc4Cl)nnc3s2)cc1 :: Yes
CCOC(=O)c1ccc(NC(=O)CSc2nc(-c3ccc(F)cc3)cc(C(F)(F)F)c2C#N)cc1 :: No
O=C(O)Cn1nnc(-c2ccc(OCc3cccc(C(F)(F)F)c3)cc2)n1 :: Yes
Cc1ccn(-c2cc(Cl)ccc2[C@@H](Oc2cc(-c3ccc(C[C@H](N)C(=O)O)cc3)nc(N)n2)C(F)(F)F)n1 :: Yes
O=C(O)COc1ccc(-c2nccc3c2C(=O)N(Cc2cccc(C(F)(F)F)c2)CC(COc2ccc4cnccc4c2)O3)cc1 (centres undefined) :: Yes
O=C(O)c1ccc(NC(=O)c2cn(-c3ccccc3)nc2-c2ccc(Br)cc2)cc1 :: Yes
O=C(O)c1cc(-c2ccc(C(F)(F)F)cc2)nc2n[nH]c(-c3ccccc3)c12 :: Yes
O=S(=O)(Nc1ccc(O)c(Sc2nc3ccccc3s2)c1)c1cc(Cl)ccc1Cl :: Yes

Task item: Which outcome did this test record for the compound N#Cc1ccc(OCC2CN(Cc3cccc(C(F)(F)F)c3)C(=O)c3c(ccnc3-c3ccc(OCC(=O)O)cc3)O2)cc1 (centres undefined) ?
Reply: Yes

----------
- procedure-text: qHTS for Inhibitors of Plasmodium falciparum (HB3) proliferation (AID 504318); note: nearly all actives have a fitted effect of over 60% in size
- experimental-conditions: P. falciparum HB3 in erythrocytes, SYBR Green DNA, 72 h; series mostly up to 7.21 µM
Inconclusive results are not listed. The source made the active and inactive calls. Calls come from the whole dose curve; as a rule, active = well fitted inhibition curve with a large enough effect; inconclusive = small, poorly fitted or top-dose-only effect; inactive = flat fitted curve, though single readings scatter.
Tick one outcome: active, inactive

Please review the following examples before continuing.
C=CCN1c2ccccc2[C@]23CCC(=O)N(CCOC)C2=NC(C(=O)OC)=C(C(=O)OC)[C@H]13 :: inactive
O=C1C[C@@H](c2ccccc2)[C@H](c2ccc(Br)cc2)O1 :: inactive
CCOC(=O)NN=C1C[C@@H](O)[C@@H](O)[C@@H]2[C@H]3C(=O)N(C4CCCCC4)C(=O)[C@@H]3CC[C@H]12 :: inactive
COc1cccc2c1[C@H](C=Cc1ccccc1)[C@@H]([C@H](O)COC(C)=O)OC2 :: inactive
COc1ccc(C=CN(CCc2ccc(OC)c(OC)c2)C(=O)c2ccccn2)cc1 :: inactive

Next up:
Task item: Which outcome did this test record for the compound COC(=O)N[C@@H](c1cccs1)C(C(C)=O)C(=O)OC (stereo partly specified) ?
Reply: inactive

----------
- procedure-text: qHTS for Inhibitors of Plasmodium falciparum (HB3) proliferation (AID 504318); note: nearly all actives have a fitted effect of over 60% in size; note: potency is the fitted concentration of half-maximal effect
- experimental-conditions: P. falciparum HB3 in erythrocytes, SYBR Green DNA, 72 h; series mostly up to 7.21 µM
Results filed as inconclusive are left out. Activity calls are given as the source filed them. Calls come from the whole dose curve; as a rule, active = well fitted inhibition curve with a large enough effect; inconclusive = small, poorly fitted or top-dose-only effect; inactive = flat fitted curve, though single readings scatter.
test-readout: Potency

COc1ccc2c(c1)CO[C@H]([C@H](O)CBr)[C@H]2C=Cc1ccccc1 :: inactive
COc1ccc(-c2nc3c(c4c2C[C@H](c2ccccc2)OC4)CN(C(=O)N[C@@H](C)C(=O)OC(C)C)CC3)c(C)c1 :: 1.65 µM (active)
C=CCN1c2ccccc2[C@]23C[C@@H](C(=O)OC)N(C(=O)c4cccs4)C2=NC(C(=O)OC)=C(C(=O)OC)[C@H]13 :: inactive
COC(=O)NC(c1ccc2c(c1)OCO2)C(C(=O)OC)C(=O)OC (centres undefined) :: inactive

----------
- procedure-text: qHTS for Activators of p53 Stress Response Pathway screened against the NCATS CANVASS Library (AID 1347388); note: 0% is about no effect
- experimental-conditions: p53RE-bla HCT-116, beta-lactamase reporter, 16 h; series mostly up to 46.1 µM
Results filed as inconclusive are left out. Activity calls are given as the source filed them. The call rests on the fitted dose curve; in most records, active means well fitted activation curve with a large enough effect; inconclusive means small, poorly fitted or top-dose-only effect; inactive means flat fitted curve, though single readings scatter.
test-readout: outcome

C[C@@H](CCC[C@]1(C)C(=O)C=C[C@]23C[C@H]4C[C@H](O[C@@]4(C)C2)C31)C(=O)N[C@@H](CO)C(=O)O (stereo partly drawn) :: inactive
CC1=CC[C@@]2(C[C@@H]1O)[C@@H](C(=O)O)CC[C@H]2C(C)C :: inactive
CCC1=C2CCCN3C(=O)O[C@H]([C@H]1OC(C)=O)[C@H]23 :: inactive

----------
- System: Zika virus NS2B-NS3 protease (linked construct)
- procedure-text: Primary screen NINDS Rhodamine qHTS for Zika virus inhibitors (AID 1347160); note: nearly all actives have a fitted effect of over 55% in size
- experimental-conditions: purified NS2B-NS3 protease, Rhodamine110 substrate fluorescence; series mostly up to 57.1 µM
Results filed as inconclusive are left out. Calls of active or inactive are those of the source. The call rests on the fitted dose curve; in most records, active means well fitted inhibition curve with a large enough effect; inconclusive means small, poorly fitted or top-dose-only effect; inactive means no such curve, though single readings can be large or run the other way. Numbered stars: 1 amine (or outer) side, 2 acyl side, 3 side chain; on linkers, the order of the positions; unused ones are H or OH. Bridge positions count the residues as written; N and C are the ends. Square brackets hold non-standard residues; d marks the D form. Peptide text beside a SMILES is read from it. ξ: configuration not given here. Phe(3R-OH) = O=C([C@@H](N[*:1])[C@H](O[*:3])c1ccccc1)[*:2]; NMeTrp(4-OMe) = CN[C@@H](Cc1c[nH]c2cccc(OC)c12)C(=O)O; ξThr(3R)(O-yl) = C[C@@H](O[*:3])C(N[*:1])C(=O)[*:2]; NMeThr(3ξ) = CN[C@H](C(=O)O)C(C)O; NMeL = CN[C@@H](CC(C)C)C(=O)O; NMeV = CN[C@H](C(=O)O)C(C)C; ξIle = CC[C@H](C)C(N)C(=O)O; ξV = CC(C)C(N)C(=O)O
Tick one outcome: label 1 (active), label 0 (inactive)

CC(CCC1(O)OC2CC3C4CC=C5CC(O[C@@H]6O[C@H](CO)[C@@H](O[C@@H]7O[C@H](CO)[C@@H](O)[C@H](O)[C@H]7O)[C@H](O)[C@H]6O[C@@H]6O[C@@H](C)[C@H](O)[C@@H](O)[C@H]6O)CCC5(C)C4CCC3(C)C2C1C)CO[C@@H]1O[C@H](CO)[C@@H](O)[C@H](O)[C@H]1O (stereo partly drawn) :: label 0

Task item: Which outcome did this test record for the molecule "CC(C)n1cnc2c(Nc3cccc(Cl)c3)nc(NCCO)nc21" ?
Reply: label 0

Task item: Which outcome did this test record for the molecule CC[C@H](C)C(NC(=O)[C@@H](NC)C(C)C)C(=O)NC1C(=O)N(C)[C@@H](C(C)O)C(=O)N[C@@H](C(C)C)C(=O)N(C)[C@@H](CC(C)C)C(=O)NC(C(C)C)C(=O)N(C)[C@@H](C(C)C)C(=O)N(C)[C@@H](Cc2c[nH]c3cccc(OC)c23)C(=O)N[C@@H](C(C)C)C(=O)N[C@@H]([C@H](O)c2ccccc2)C(=O)N[C@@H](C(C)C)C(=O)O[C@@H]1C (stereo partly drawn) (H-[NMeV][ξIle][ξThr(3R)(O-yl)][NMeThr(3ξ)]V[NMeL][ξV][NMeV][NMeTrp(4-OMe)]V[Phe(3R-OH)]V; ester 3-C) ?
Reply: label 0

Task item: Which outcome did this test record for the molecule "Cc1nc(C)c2c(n1)N(Cc1ccc(-c3ccccc3-c3nn[nH]n3)cc1)C(=O)CC2" ?
Reply: label 0

Task item: Which outcome did this test record for the molecule "O=Cc1ccc2n1C[C@@]1(C[C@H](O)[C@H](O)CO1)OC2" ?
Reply: label 0

Task item: Which outcome did this test record for the molecule "CCOP(=O)(Cc1ccc(C(=O)Nc2ccc(Br)cc2C#N)cc1)OCC" ?
Reply: label 0

Task item: Which outcome did this test record for the molecule COc1c(N2CC3CCCNC3C2)c(F)cc2c(=O)c(C(=O)O)cn(C3CC3)c12 (stereo not drawn) ?
Reply: label 0

Task item: Which outcome did this test record for the molecule "CN(C)CC(=O)Nc1ccc2[nH]c(=O)c3ccccc3c2c1" ?
Reply: label 0

Task item: Which outcome did this test record for the molecule "C/C=C1/CC[C@@H]2c3[nH]c4ccccc4c3CCN2C1" ?
Reply: label 0

Task item: Which outcome did this test record for the molecule "CC[C@@H](C)[C@H]1C(=O)O[C@H](C(C)C)C(=O)N(C)[C@@H](C(C)C)C(=O)O[C@H](C(C)C)C(=O)N(C)[C@@H](C(C)C)C(=O)O[C@H](CC(C)C)C(=O)N1C" ?
Reply: label 0

Task item: Which outcome did this test record for the molecule "COc1cc2ncnc(Nc3ccc(Oc4ccccc4)cc3)c2cc1OC" ?
Reply: label 0

Task item: Which outcome did this test record for the molecule "COc1ccc(NC(=O)N2CCc3c2ccc2ccccc32)cc1N1CCN(C)CC1" ?
Reply: label 0

Task item: Which outcome did this test record for the molecule C=C1C(=O)O[C@@H]2/C=C(/C)CC3C=C(C[C@H](OC(=O)/C(C)=C\C)[C@@H]12)C(=O)O3 (stereo partly drawn) ?
Reply: label 0

Task item: Which outcome did this test record for the molecule "C[C@@H]1O[C@@H](Oc2c(-c3ccc(O)cc3)oc3cc(O)cc(O)c3c2=O)[C@H](O)[C@H](O)[C@H]1O" ?
Reply: label 1

Task item: Which outcome did this test record for the molecule CC1CCC2C(=CCC(O)C2(C)C)C1(C)Cc1c(O)cc(CO)c(C=O)c1O (stereo not drawn) ?
Reply: label 0
